So I've got a bunch of compounds here, and I need their solubility (g/100 g solution) values.
assay-text: xn = mol fraction of the nth substance listed, in the solute-free solvent
conditions-used: 278.15 K; x2 = 0.1139
Simply state the number, no unit and no words.

Given the compound CN1CCC(N(Cc2cccs2)c2ccccc2)CC1 + CCCO + O , what is its reported solubility (g/100 g solution)?
0.734

Given the compound CN1CCC(N(Cc2cccs2)c2ccccc2)CC1 + CC(C)O + O , what is its reported solubility (g/100 g solution)?
0.573

Given the compound Cc1ccc2cc(Br)ccc2n1 + CC(C)O + O , what is its reported solubility (g/100 g solution)?
0.263

Given the compound Nc1cccc2ccncc12 + CC(C)O + O , what is its reported solubility (g/100 g solution)?
0.235

Given the compound Nc1cccc2ccncc12 + CCCO + O , what is its reported solubility (g/100 g solution)?
0.299

----------
assay-text: xn = mol fraction of the nth substance listed, in the solute-free solvent
conditions-used: 283.15 K; x2 = 0.7297
Please enter Satisfied where solubility (g/100 g solution) is greater than or equal to 2, and Not satisfied where it is lower.

Hi, just wondering whether CN1CCC(N(Cc2cccs2)c2ccccc2)CC1 + CC(C)O + O shows solubility (g/100 g solution) of 2 or higher.
Not satisfied

Hi, just wondering whether Nc1cccc2ccncc12 + CC(C)O + O shows solubility (g/100 g solution) of 2 or higher.
Not satisfied

Hi, just wondering whether CN1CCC(N(Cc2cccs2)c2ccccc2)CC1 + CCCO + O shows solubility (g/100 g solution) of 2 or higher.
Satisfied

Hi, just wondering whether Nc1cccc2ccncc12 + CCCO + O shows solubility (g/100 g solution) of 2 or higher.
Not satisfied

Hi, just wondering whether Cc1ccc2cc(Br)ccc2n1 + CC(C)O + O shows solubility (g/100 g solution) of 2 or higher.
Not satisfied

----------
assay-text: xn = mol fraction of the nth substance listed, in the solute-free solvent
conditions-used: 318.15 K; x2 = 0.03225
readout-type: solubility (g/100 g solution)
Simply state the number, no unit and no words.

Given the compound Nc1cccc2ccncc12 + CCCO + O , what is its reported solubility (g/100 g solution)?
0.247

Given the compound CN1CCC(N(Cc2cccs2)c2ccccc2)CC1 + CCCO + O , what is its reported solubility (g/100 g solution)?
0.318

Given the compound Nc1cccc2ccncc12 + CC(C)O + O , what is its reported solubility (g/100 g solution)?
0.218

Given the compound CN1CCC(N(Cc2cccs2)c2ccccc2)CC1 + CC(C)O + O , what is its reported solubility (g/100 g solution)?
0.274

Given the compound Cc1ccc2cc(Br)ccc2n1 + CC(C)O + O , what is its reported solubility (g/100 g solution)?
0.148

----------
assay-text: xn = mol fraction of the nth substance listed, in the solute-free solvent
conditions-used: 283.15 K; x2 = 0.06974
readout-type: solubility (g/100 g solution)

Given the compound CN1CCC(N(Cc2cccs2)c2ccccc2)CC1 + CC(C)O + O , what is its reported solubility (g/100 g solution)?
0.345

Given the compound Cc1ccc2cc(Br)ccc2n1 + CC(C)O + O , what is its reported solubility (g/100 g solution)?
0.161

Given the compound Nc1cccc2ccncc12 + CCCO + O , what is its reported solubility (g/100 g solution)?
0.199

Given the compound CN1CCC(N(Cc2cccs2)c2ccccc2)CC1 + CCCO + O , what is its reported solubility (g/100 g solution)?
0.434

Given the compound Nc1cccc2ccncc12 + CC(C)O + O , what is its reported solubility (g/100 g solution)?
0.163

----------
assay-text: xn = mol fraction of the nth substance listed, in the solute-free solvent
conditions-used: 278.15 K; x2 = 0.06974
readout-type: solubility (g/100 g solution)
Simply state the number, no unit and no words.

Given the compound Cc1ccc2cc(Br)ccc2n1 + CC(C)O + O , what is its reported solubility (g/100 g solution)?
0.141

Given the compound Nc1cccc2ccncc12 + CCCO + O , what is its reported solubility (g/100 g solution)?
0.175

Given the compound Nc1cccc2ccncc12 + CC(C)O + O , what is its reported solubility (g/100 g solution)?
0.141

Given the compound CN1CCC(N(Cc2cccs2)c2ccccc2)CC1 + CC(C)O + O , what is its reported solubility (g/100 g solution)?
0.326

Given the compound CN1CCC(N(Cc2cccs2)c2ccccc2)CC1 + CCCO + O , what is its reported solubility (g/100 g solution)?
0.411

----------
So I've got a bunch of compounds here, and I need their solubility (g/100 g solution) values.
assay-text: xn = mol fraction of the nth substance listed, in the solute-free solvent
conditions-used: 308.15 K; x2 = 0.7297
Simply state the number, no unit and no words.

Given the compound Nc1cccc2ccncc12 + CCCO + O , what is its reported solubility (g/100 g solution)?
2.24

Given the compound CN1CCC(N(Cc2cccs2)c2ccccc2)CC1 + CCCO + O , what is its reported solubility (g/100 g solution)?
3.62

Given the compound Cc1ccc2cc(Br)ccc2n1 + CC(C)O + O , what is its reported solubility (g/100 g solution)?
1.81

Given the compound Nc1cccc2ccncc12 + CC(C)O + O , what is its reported solubility (g/100 g solution)?
1.84

Given the compound CN1CCC(N(Cc2cccs2)c2ccccc2)CC1 + CC(C)O + O , what is its reported solubility (g/100 g solution)?
2.85

----------
assay-text: xn = mol fraction of the nth substance listed, in the solute-free solvent
conditions-used: 283.15 K; x2 = 0.1139
So I've got a bunch of compounds here, and I need their solubility (g/100 g solution) values.
Simply state the number, no unit and no words.

Given the compound Cc1ccc2cc(Br)ccc2n1 + CC(C)O + O , what is its reported solubility (g/100 g solution)?
0.301

Given the compound CN1CCC(N(Cc2cccs2)c2ccccc2)CC1 + CC(C)O + O , what is its reported solubility (g/100 g solution)?
0.606

Given the compound CN1CCC(N(Cc2cccs2)c2ccccc2)CC1 + CCCO + O , what is its reported solubility (g/100 g solution)?
0.774

Given the compound Nc1cccc2ccncc12 + CC(C)O + O , what is its reported solubility (g/100 g solution)?
0.271

Given the compound Nc1cccc2ccncc12 + CCCO + O , what is its reported solubility (g/100 g solution)?
0.34

----------
assay-text: xn = mol fraction of the nth substance listed, in the solute-free solvent
conditions-used: 278.15 K; x2 = 0.2307
readout-type: solubility (g/100 g solution)

Given the molecule Nc1cccc2ccncc12 + CC(C)O + O , what is its reported solubility (g/100 g solution)?
0.393

Given the molecule Cc1ccc2cc(Br)ccc2n1 + CC(C)O + O , what is its reported solubility (g/100 g solution)?
0.427

Given the molecule CN1CCC(N(Cc2cccs2)c2ccccc2)CC1 + CC(C)O + O , what is its reported solubility (g/100 g solution)?
1.04

Given the molecule Nc1cccc2ccncc12 + CCCO + O , what is its reported solubility (g/100 g solution)?
0.521

Given the molecule CN1CCC(N(Cc2cccs2)c2ccccc2)CC1 + CCCO + O , what is its reported solubility (g/100 g solution)?
1.32

----------
So I've got a bunch of compounds here, and I need their solubility (g/100 g solution) values.
assay-text: xn = mol fraction of the nth substance listed, in the solute-free solvent
conditions-used: 308.15 K; x2 = 0.2307
Simply state the number, no unit and no words.

Given the compound Nc1cccc2ccncc12 + CC(C)O + O , what is its reported solubility (g/100 g solution)?
1.02

Given the compound Nc1cccc2ccncc12 + CCCO + O , what is its reported solubility (g/100 g solution)?
1.28

Given the compound CN1CCC(N(Cc2cccs2)c2ccccc2)CC1 + CC(C)O + O , what is its reported solubility (g/100 g solution)?
1.64

Given the compound Cc1ccc2cc(Br)ccc2n1 + CC(C)O + O , what is its reported solubility (g/100 g solution)?
0.997

Given the compound CN1CCC(N(Cc2cccs2)c2ccccc2)CC1 + CCCO + O , what is its reported solubility (g/100 g solution)?
2.06

----------
assay-text: xn = mol fraction of the nth substance listed, in the solute-free solvent
conditions-used: 313.15 K; x2 = 0.3103
readout-type: solubility (g/100 g solution)
Simply state the number, no unit and no words.

Given the molecule CN1CCC(N(Cc2cccs2)c2ccccc2)CC1 + CCCO + O , what is its reported solubility (g/100 g solution)?
2.69

Given the molecule Cc1ccc2cc(Br)ccc2n1 + CC(C)O + O , what is its reported solubility (g/100 g solution)?
1.37

Given the molecule Nc1cccc2ccncc12 + CC(C)O + O , what is its reported solubility (g/100 g solution)?
1.47

Given the molecule CN1CCC(N(Cc2cccs2)c2ccccc2)CC1 + CC(C)O + O , what is its reported solubility (g/100 g solution)?
2.11

Given the molecule Nc1cccc2ccncc12 + CCCO + O , what is its reported solubility (g/100 g solution)?
1.78
